tested on: Leptosphaeria nodorum; assay: Wheat glume blotch (LEPTNO) disease control; format: in vivo; conditions: Parastagonospora nodorum, 24 h, 1 Day Protectant, read-out: LEPTNO disease control rating
METRIC_NAME: pest or weed control at 100 ppm

Examples with their reported pest or weed control at 100 ppm follow.
CCCC[C@H]1[C@H](C)OC(=O)[C@@H](NC(=O)c2nccc(OC)c2OCOC(C)=O)CCC[C@@H]1Oc1ccccc1 [Compound 33]; > 70%
CCCO[C@H]1CCC[C@H](NC(=O)c2nccc(OC)c2OC(C)=O)C(=O)O[C@@H](C)[C@@H]1CCC(C)C [Compound 74]; > 70%

Ask | I have this compound here, COc1ccnc(C(=O)N[C@H]2CCC[C@H](OCC3CC3)[C@@H](Cc3ccc(F)cc3)[C@H](C)OC2=O)c1OCOC(C)=O [Compound 61] , and I need its recorded pest or weed control at 100 ppm.
Reply | > 70%

----------
system: Mycosphaerella graminicola; Anamorph: Septoria tritici; test: Leaf blotch of wheat (SEPTTR) disease control on wheat seedlings; format: in vivo; details: Zymoseptoria tritici, 72 h; 3 Day Curative, 100 ppm (high volume), wheat; read-out: SEPTTR 3DC disease control rating
This section presents compounds with their documented pest or weed control at 100 ppm values.

Examples with their reported pest or weed control at 100 ppm follow.
COc1ccnc(C(=O)N[C@H]2CCC[C@H](Oc3ccc(C)cc3)[C@@H](Cc3ccccc3)[C@H](C)OC2=O)c1O; > 70%
CCCC[C@H]1[C@H](C)OC(=O)[C@@H](NC(=O)c2nccc(OC)c2O)CCC[C@@H]1OC(=O)C(C)C; > 70%
CCCC[C@H]1[C@H](C)OC(=O)[C@@H](NC(=O)c2nccc(OC)c2O)CCC[C@@H]1OCc1ccccc1; < 70%

Ask | I have this compound here, CCCO[C@H]1CCC[C@H](NC(=O)c2nccc(OC)c2OC(C)=O)C(=O)O[C@@H](C)[C@@H]1Cc1ccccc1 , and I need its recorded pest or weed control at 100 ppm.
Reply | > 70%

Ask | I have this compound here, COc1ccnc(C(=O)N[C@H]2CCC[C@H](OC(=O)C3CC3)[C@@H](Cc3ccc(F)cc3)[C@H](C)OC2=O)c1O , and I need its recorded pest or weed control at 100 ppm.
Reply | < 70%

Ask | I have this compound here, CCCC[C@H]1[C@H](C)OC(=O)[C@@H](NC(=O)c2nccc(OC)c2O)CCC[C@@H]1OCC1CC1 , and I need its recorded pest or weed control at 100 ppm.
Reply | > 70%

Ask | I have this compound here, COc1ccnc(C(=O)N[C@H]2CCC[C@H](OCC3CC3)[C@@H](Cc3ccccc3)[C@H](C)OC2=O)c1O , and I need its recorded pest or weed control at 100 ppm.
Reply | > 70%

----------
This section presents compounds with their documented melting point values.

Examples with their reported melting point follow.
COc1ccnc(C(=O)N[C@H]2CCC[C@H](Oc3ccccc3)[C@@H](CCC(C)C)[C@H](C)OC2=O)c1OCOC(C)=O; 47 to 51 °C
COc1ccnc(C(=O)N[C@H]2CCC[C@H](Oc3ccccc3)[C@@H](CCC(C)C)[C@H](C)OC2=O)c1O; 55 to 60 °C
COc1ccnc(C(=O)N[C@H]2CCC[C@H](Oc3ccc(C)cc3)[C@@H](Cc3ccccc3)[C@H](C)OC2=O)c1O; 68 to 71 °C
CCCC[C@H]1[C@H](C)OC(=O)[C@@H](N)CCC[C@@H]1OCC1CC1.Cl; 223 to 224 °C
CCCO[C@H]1CCC[C@H](NC(=O)c2nccc(OC)c2OC(C)=O)C(=O)O[C@@H](C)[C@@H]1CCC(C)C; 46 to 50 °C

Ask | I have this compound here, CCCO[C@H]1CCC[C@H](NC(=O)c2nccc(OC)c2O)C(=O)O[C@@H](C)[C@@H]1Cc1ccccc1 , and I need its recorded melting point.
Reply | 59 to 64 °C

Ask | I have this compound here, CCCC[C@H]1[C@H](C)OC(=O)[C@@H](N)CCC[C@@H]1OCCCC(F)(F)F.Cl , and I need its recorded melting point.
Reply | 196 to 198 °C
